- Assay info: recombinant UMI read abundance after kanamycin selection (control-corrected) (log10(CPM+1)); higher = more efficient recombination; extreme values may be limits of the assay; sequences stand for … in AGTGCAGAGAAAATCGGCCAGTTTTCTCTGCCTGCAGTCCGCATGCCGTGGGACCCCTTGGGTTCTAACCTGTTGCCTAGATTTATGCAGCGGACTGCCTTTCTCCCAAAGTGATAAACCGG…AGGTTGGTTTCACT; site = the 11-nt donor
Measured parameter: recombinant UMI read abundance (log10)
Numbers only.

Field: recombinant UMI read abundance (log10). Fill in for each record below.
1. CACGGCCCATGGACCGGTTTTCCCGGTAATCCGTATTTGAT (site CACGGCCCTAT)
2. ACCGGACCATGGACCGGTTTTCCCGGTAATCCGTATTTGGC (site ACCGGACCTGC)
3. ACCTAGACATGGACCGGTTTTCCCGGTAATCCGTATTTGGT (site ACCTAGACTAC)
4. CTCTATACATGGACCGGTTTTCCCGGTAATCCGTATTTGAC (site ATCTATACTGT)
5. ACCGAGACATGGACCGGTTTTCCCGGTAATCCGTATTTGGG (site ACCTAGACTCC)
6. CTCGGTCCATGGACCGGTTTTCCCGGTAATCCGTATTTGCA (site CCCGGTCCTTG)
7. GTGCATACATGGACCGGTTTTCCCGGTAATCCGTATTTGGT (site GTGCATACTAC)
8. AAGCTCGCATGGACCGGTTTTCCCGGTAATCCGTATTTGGG (site AAGCGCGCTCC)

1: 0.255; 2: 0; 3: 0.0673; 4: 0; 5: 0; 6: 1.6; 7: 1.51; 8: 0.0107

Field request: recombinant UMI read abundance (log10) | item: CATCATGCATGGACCGGTTTTCCCGGTAATCCGTATTTGTT (site CATCATGCTAA)
1.58

* * *

- Assay info: recombinant UMI read abundance after kanamycin selection (control-corrected) (log10(CPM+1)); higher = more efficient recombination; extreme values may be limits of the assay; sequences stand for … in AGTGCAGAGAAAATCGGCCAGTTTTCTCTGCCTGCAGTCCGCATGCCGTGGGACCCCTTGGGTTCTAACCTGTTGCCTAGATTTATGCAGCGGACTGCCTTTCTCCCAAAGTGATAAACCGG…AGGTTGGTTTCACT; site = the 11-nt donor
Measured parameter: recombinant UMI read abundance (log10)

1. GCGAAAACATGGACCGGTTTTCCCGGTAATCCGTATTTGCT (site GCGAAAACTGG); 0
2. AAGCGTCCATGGACCGGTTTTCCCGGTAATCCGTATTTGAT (site AAGCGTCCTAT); 1.17
3. GAATGGCCATGGACCGGTTTTCCCGGTAATCCGTATTTGCT (site GAATGGCCTAG); 0.0235

For each listed entry, give its recombinant UMI read abundance (log10).
1. CAAGGTGCATGGACCGGTTTTCCCGGTAATCCGTATTTGTT (site CAAGGTGCTAA)
2. CATTTGGCATGGACCGGTTTTCCCGGTAATCCGTATTTGGA (site CAGTTGGCTTC)
3. GGGCCAACATGGACCGGTTTTCCCGGTAATCCGTATTTGTA (site GGCCCAACTTA)
4. GTGCAGGCATGGACCGGTTTTCCCGGTAATCCGTATTTGTG (site GTGAAGGCTCA)

2.59
0.466
0.0205
1.5

// each sequence listed below needs its recombinant UMI read abundance (log10)
1. AGAGTATCATGGACCGGTTTTCCCGGTAATCCGTATTTGCA (site AAAGTATCTTG)
2. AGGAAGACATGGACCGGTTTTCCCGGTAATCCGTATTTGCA (site ACAAAGACTTG)
3. GCCAGACCATGGACCGGTTTTCCCGGTAATCCGTATTTGGA (site GCCAGACCTTC)
4. CCGTTCTCATGGACCGGTTTTCCCGGTAATCCGTATTTGGG (site CCATTCTCTCC)
5. CAAGCACCATGGACCGGTTTTCCCGGTAATCCGTATTTGTG (site CAAGCCCCTCA)
6. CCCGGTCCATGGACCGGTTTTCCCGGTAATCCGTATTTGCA (site CCCGGTCCTAG)
7. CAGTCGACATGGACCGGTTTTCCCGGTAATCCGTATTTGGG (site CAGACGACTCC)
8. GCCATGCCATGGACCGGTTTTCCCGGTAATCCGTATTTGTA (site GCCAAGCCTTA)

2.57
1.25
0.0205
0.00249
0.00553
0
0.083
0.00915

* * *

Answer each item with its documented recombinant barcode read abundance (log10).
- Assay info: recombinant barcode read abundance after kanamycin selection (control-corrected) (log10(CPM+1)); higher = more efficient recombination; sequences stand for … in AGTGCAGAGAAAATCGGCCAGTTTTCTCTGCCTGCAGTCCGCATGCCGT…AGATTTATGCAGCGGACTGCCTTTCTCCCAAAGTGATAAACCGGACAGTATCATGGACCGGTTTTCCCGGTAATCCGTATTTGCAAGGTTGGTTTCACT; site = the 11-nt target
Give bare numbers.

Record excerpt, results attached:
1) GGGATACCTTGGGTTCTAACCTGTTGCTA (site GGGATACCTTA); 1.37
2) AACTCAACTTGGGTTCTAACCTGTTGCCT (site AACTAAACTAG); 0.108
3) CGGGCGCCTTGGGTTCTAACCTGTTGCGG (site CGGGCGCCTCC); 2.14
4) CTCCTATCTTGGGTTCTAACCTGTTGCCT (site CTCCAATCTAG); 0.238

Shift focus to the following entry.
Fill in: recombinant barcode read abundance (log10) of AATTGCCCTTGGGTTCTAACCTGTTGCCT (site AATTGCCCTAG) is ___
0.369

* * *

- Assay info: recombinant UMI read abundance after kanamycin selection (control-corrected) (log10(CPM+1)); higher = more efficient recombination; extreme values may be limits of the assay; sequences stand for … in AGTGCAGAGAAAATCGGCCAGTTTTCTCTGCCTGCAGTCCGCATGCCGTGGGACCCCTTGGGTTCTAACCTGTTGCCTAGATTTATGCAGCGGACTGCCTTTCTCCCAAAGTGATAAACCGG…AGGTTGGTTTCACT; site = the 11-nt donor
Give measured recombinant UMI read abundance (log10) for each item. Keep answers brief.
Answers are plain numbers.

Look over these answered cases.
1) GTCACAACATGGACCGGTTTTCCCGGTAATCCGTATTTGAC (site GTCACAACTGT); 1.36
2) CATTATGCATGGACCGGTTTTCCCGGTAATCCGTATTTGGA (site GATTATGCTTC); 0.00887
3) CGGAGTCCATGGACCGGTTTTCCCGGTAATCCGTATTTGAT (site CGGAATCCTAA); 0.0131
4) TCGGTATCATGGACCGGTTTTCCCGGTAATCCGTATTTGGT (site TCGGTATCTAC); 1.89
5) CTACTGACATGGACCGGTTTTCCCGGTAATCCGTATTTGGA (site CTACTCACTTC); 0.015
6) CACGCCTCATGGACCGGTTTTCCCGGTAATCCGTATTTGCC (site CACCCCTCTGG); 1.65

Parameter requested: recombinant UMI read abundance (log10). Apply to each item below.
1. CCCTACACATGGACCGGTTTTCCCGGTAATCCGTATTTGTA (site CCCTACACTTA)
2. ACCGAGACATGGACCGGTTTTCCCGGTAATCCGTATTTGGG (site ACCGAGACTCC)
3. CGTGAAACATGGACCGGTTTTCCCGGTAATCCGTATTTGTT (site CGTGTAACTAA)

1: 0.0328; 2: 0.621; 3: 0.0209

* * *

Provide the reported recombinant UMI read abundance (log10) of each item.
- Assay info: recombinant UMI read abundance after kanamycin selection (control-corrected) (log10(CPM+1)); higher = more efficient recombination; extreme values may be limits of the assay; sequences stand for … in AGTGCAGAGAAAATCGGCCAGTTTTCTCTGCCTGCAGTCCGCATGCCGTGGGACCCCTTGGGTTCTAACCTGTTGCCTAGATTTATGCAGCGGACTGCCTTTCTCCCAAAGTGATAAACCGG…AGGTTGGTTTCACT; site = the 11-nt donor
Give bare numbers.

Study these solved cases before continuing.
1. TCAGTTTCATGGACCGGTTTTCCCGGTAATCCGTATTTGCA (site TCAGTTTCTTG); 1.14
2. CCTAAAGCATGGACCGGTTTTCCCGGTAATCCGTATTTGAC (site CCTAAAGCTTT); 0.0124
3. TCGGAATCATGGACCGGTTTTCCCGGTAATCCGTATTTGCG (site TGGGAATCTCG); 0.211
4. CACTCTTCATGGACCGGTTTTCCCGGTAATCCGTATTTGCC (site CACTCATCTGG); 1.6
5. ACTTGCTCATGGACCGGTTTTCCCGGTAATCCGTATTTGTT (site ACTTGCTCTAA); 0.824
6. TGCCCGGCATGGACCGGTTTTCCCGGTAATCCGTATTTGGC (site TGGCCGGCTGC); 0
7. CGTTTCGCATGGACCGGTTTTCCCGGTAATCCGTATTTGCT (site CGTTTGGCTAG); 0
8. GAGAAATCATGGACCGGTTTTCCCGGTAATCCGTATTTGCG (site GAGAAATCTCG); 0

# return recombinant UMI read abundance (log10) for each item in the list
1. AGCAACGCATGGACCGGTTTTCCCGGTAATCCGTATTTGTG (site AGCAACGCTCA)
2. GCCACCCCATGGACCGGTTTTCCCGGTAATCCGTATTTGTA (site GCCACGCCTTA)
3. GATTGTCCATGGACCGGTTTTCCCGGTAATCCGTATTTGCT (site GATTGTCCTAG)

1: 1.36; 2: 0; 3: 0

Please supply recombinant UMI read abundance (log10) for each of the following items, keeping them in order.
1. GAAAATTCATGGACCGGTTTTCCCGGTAATCCGTATTTGTT (site GAAAATTCTAA)
2. GGATCGACATGGACCGGTTTTCCCGGTAATCCGTATTTGCC (site GGATCGACTGG)
3. AGAAAAGCATGGACCGGTTTTCCCGGTAATCCGTATTTGCT (site AGAAACGCTAG)

0.97
1.28
0.464

List recombinant UMI read abundance (log10) for every entry below, keeping the order given.
1. GTAGTGGCATGGACCGGTTTTCCCGGTAATCCGTATTTGCG (site GTAGTCGCTCG)
2. TAAGAATCATGGACCGGTTTTCCCGGTAATCCGTATTTGCG (site TAGGAATCTCG)

[1.25, 2.51]

Look up recombinant UMI read abundance (log10) for the entries below, preserving their order.
1. CATTACCCATGGACCGGTTTTCCCGGTAATCCGTATTTGCC (site CATTACCCTGG)
2. CGTTTCGCATGGACCGGTTTTCCCGGTAATCCGTATTTGCT (site CGTTTAGCTAG)

1. 0
2. 0
